# System: Ruminococcus gnavus DSM 108212
# Assay text: fold change of Tryptamine concentration vs plate DMSO controls (fold change (ratio)); higher = more amine produced, active = hit call of the paper (significant change in both replicates, either direction);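 for the amine columns active = adjusted P below 0.05 in both replicates with a change the same way and a mean fold change under 0.8 or over 1.25; inactive = the rest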
# Recorded conditions: incubation time: 27 h, anaerobic, 37 °C
Counter-ions that a name gives are not always drawn.
Just give me one of these, please: active, inactive

CC(C)NCC(O)c1cc(O)cc(O)c1 (stereo not given) [Metaproterenol sulfate] (20 µM) ... inactive
Nc1ccccc1S(N)(=O)=O [o-Sulfanilamide] (20 µM) ... inactive
OC[C@H]1O[C@H](O[C@H]2O[C@H](CO)[C@@H](O)[C@H](O)[C@H]2O)[C@H](O)[C@@H](O)[C@@H]1O [Trehalose] (50 µM) ... inactive
CCOC(=O)C1=C(C)NC(C)=C(C(=O)OC)C1c1cccc([N+](=O)[O-])c1 (stereo not given) [Nitrendipine] (20 µM) ... inactive

-- ask I'd appreciate the recorded outcome for CN(C)C(=O)C(CCN1CCC(O)(c2ccc(Cl)cc2)CC1)(c1ccccc1)c1ccccc1 [Loperamide hydrochloride] (20 µM) from this test.
-- reply inactive

-- ask I'd appreciate the recorded outcome for Cc1cn([C@H]2C=C[C@@H](CO)O2)c(=O)[nH]c1=O [Stavudine] (20 µM) from this test.
-- reply inactive

-- ask I'd appreciate the recorded outcome for Cc1cc(=O)oc2cc(O)ccc12 [Hymecromone] (20 µM) from this test.
-- reply inactive

-- ask I'd appreciate the recorded outcome for COc1c2occc2c(OC)c2c(=O)cc(C)oc12 [Khellin] (20 µM) from this test.
-- reply inactive

-- ask I'd appreciate the recorded outcome for CN[C@@H]1CCc2[nH]c3ccc(C(N)=O)cc3c2C1 [Frovatriptan succinate] (20 µM) from this test.
-- reply inactive

----------
# Test system: Escherichia coli IAI1
# Assay text: fold change of Cadaverine concentration vs plate DMSO controls (fold change (ratio)); higher = more amine produced, active = hit call of the paper (significant change in both replicates, either direction)
# Recorded conditions: incubation time: 27 h, anaerobic, 37 °C
Where a name gives a salt, the structure may show the parent alone.
Assign fold change of Cadaverine concentration to each entry below.
Numbers only.

The examples below pair each entry with its known result.
CCOC(=O)c1ccc(C#Cc2ccc3c(c2)C(C)(C)CCS3)nc1 [Tazarotene] (20 µM) ... 0.942
CCOC(=O)C(C)(N)Cc1cc(I)c(Oc2cc(I)c(O)c(I)c2)c(I)c1 (centres undefined) [Etiroxate hydrochloride] (20 µM) ... 0.958

For each of the compounds below, note its fold change of Cadaverine concentration.
1. CC[C@H](C)C(=O)O[C@H]1C[C@@H](C)C=C2C=C[C@H](C)[C@H](CC[C@@H]3C[C@@H](O)CC(=O)O3)[C@H]21 [Lovastatin] (20 µM)
2. Cc1cc2c(cc1S(N)(=O)=O)S(=O)(=O)CCC2 [Meticrane] (20 µM)
3. CCC[C@@H]1C[C@@H](C(=O)N[C@@H]([C@H]2O[C@H](SC)[C@H](O)[C@@H](O)[C@H]2O)[C@H](C)Cl)N(C)C1 [Clindamycin hydrochloride] (20 µM)
4. Cc1cn(-c2cc(NC(=O)c3ccc(C)c(Nc4nccc(-c5cccnc5)n4)c3)cc(C(F)(F)F)c2)cn1 [Nilotinib] (20 µM)

-- reply
1. 1.01
2. 1.02
3. 0.844
4. 0.967

For each of the compounds below, note its fold change of Cadaverine concentration.
1. CN(C)CCOC(=O)C(c1ccccc1)C1(O)CCCC1 (centres undefined) [Cyclopentolate hydrochloride] (20 µM)
2. O=C(c1ccc(F)cc1)C1CCN(CCn2c(=O)[nH]c3ccccc3c2=O)CC1 [Ketanserin tartrate hydrate] (20 µM)

-- reply
0.977
0.963
